Entries annotated with measured koff
Target: T1, eukaryotically produced human IL-6 (human, UniProt P05231 30-212)
T1 construct: Immobilised on the Biacore chip; also called Euk IL-6; EUK IL-6 (3-1)
Assay: SPR (Biacore), periplasmic Fab
Only the number, expressed in s⁻¹, is required.

Example binders with recorded koff:
Answer with reported koff of 55A11 (Fab, V domains shown, Periplasmic Fab; Suffix 'd' of the label not explained; also called 55A11d) VH: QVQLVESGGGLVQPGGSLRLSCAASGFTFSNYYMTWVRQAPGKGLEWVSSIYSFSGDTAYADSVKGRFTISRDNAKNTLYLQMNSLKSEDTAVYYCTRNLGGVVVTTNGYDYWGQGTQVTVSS VL: DIQMTQSPSSLPTSLGDSVTITCQASQSISDELSWYQQKPGQTPKLLIYGASRLQTGVPSRFSGRGSGTSFTLTISGLEAEDLATYYCLQGYSWPFMFGQGTKVELK 6.36e-05

Give the value of koff reported for the following: 48H1 (Fab, V domains shown, Periplasmic Fab; Suffix 'g2, R4' not explained; also called 48H1g2, R4) VH: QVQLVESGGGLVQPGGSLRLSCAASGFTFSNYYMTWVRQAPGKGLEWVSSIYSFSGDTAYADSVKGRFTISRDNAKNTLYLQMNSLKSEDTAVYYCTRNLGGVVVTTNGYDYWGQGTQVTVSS VL: DVVMTQSPSSLPTSLGDSVTITCQASQSISDELSWYQQKPGQTPKLLIYGASKLQTGVPSRFSGSGSGTSFTLTISGLEAEDLATYYCLQGYSWPFMFGQGTKVELK 6.8e-05

Return koff for the following binder: 55E10 (Fab, V domains shown, Periplasmic Fab; Suffix 'g1' not explained; also called 55E10g1) VH: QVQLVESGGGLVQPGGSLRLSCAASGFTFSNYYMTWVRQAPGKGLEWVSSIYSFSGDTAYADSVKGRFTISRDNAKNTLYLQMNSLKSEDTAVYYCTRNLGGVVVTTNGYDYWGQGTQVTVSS VL: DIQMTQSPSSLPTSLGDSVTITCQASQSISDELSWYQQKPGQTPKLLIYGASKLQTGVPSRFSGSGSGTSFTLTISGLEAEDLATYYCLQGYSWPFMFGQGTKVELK 5.59e-05

New cases:
Check the records and state koff for 55C11 (Fab, V domains shown, Periplasmic Fab; Suffix 'f' not explained; also called 55C11f) VH: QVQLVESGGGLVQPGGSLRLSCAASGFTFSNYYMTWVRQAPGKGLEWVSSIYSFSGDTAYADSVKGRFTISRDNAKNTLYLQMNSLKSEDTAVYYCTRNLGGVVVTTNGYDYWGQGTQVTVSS VL: DIQLTQSPSSLSASLGDSVTITCQASQSISDELSWYQQKPGQTPKLLIYGASKLQTGVPSRFSGSGSGTSFTLTISGLEAEDLATYYCLQGYRWPFMFGQGTKVELK 6.47e-05

FYI, the data here is from patent US20220073604A1.
